All figures here come from paper PMC8605023.

- system: T1, G3BP2 NTF2 domain (human, UniProt Q9UN86 11-133)
- T1 sequence (looked up): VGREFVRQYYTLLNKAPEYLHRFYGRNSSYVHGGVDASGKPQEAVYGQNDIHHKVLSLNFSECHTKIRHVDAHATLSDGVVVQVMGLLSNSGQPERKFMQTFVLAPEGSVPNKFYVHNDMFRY
- setupConditions: both partners purified
measuredEndpoint: IC50

[[record]]
binder = "NLQFGALQFGSEPVY [UBAP2L peptide 515-528]"
measuredendpoint = "IC50"
measurement = "79 µM"

[[record]]
binder = "PSKLPTFGAPEQLVDY [TRIM25 peptide 400-414]"
measuredendpoint = "IC50"
measurement = "53 µM"

[[record]]
binder = "PVPPIEFGVSPKDSDY [PRRC2B peptide 1780-1794]"
measuredendpoint = "IC50"
measurement = "53 µM"

